molecular target: MDM2 SWIB domain, Lepisosteus oculatus; assay: Fluorescence polarization displacement assay; type: binding; details: replicate 2; MDM2 1000 nM, labeled probe 15 nM; read-out: IC50 [M] (IT)
Sequence (as listed by the source): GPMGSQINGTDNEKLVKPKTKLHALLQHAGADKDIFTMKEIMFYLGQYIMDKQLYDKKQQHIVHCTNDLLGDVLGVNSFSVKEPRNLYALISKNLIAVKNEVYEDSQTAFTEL
Assay metric: IC50 (M)
Give bare numbers, in M.

query: Return IC50 for the following sequence: GPMGMADPEPEGLPLSQESFQELWNMVIVLHRAVPPENAQWPDLQSMLYTNELVPNAIDSLYEELEPHVSMPPQPMVSNPDGLAPSSST [L.ocu p53 full, expressed full-length spotted gar p53TAD]
result: 2.14e-06

###

biological target: D. rerio MDM2 (Danio rerio); construct: NusA-TEV-His6-PreScission site (N, cleaved yes); made in house; host or cells: Escherichia coli BL21 (DE3); assay: Isothermal titration calorimetry; type: binding; conditions: ITC, 25 °C, MDM2 11 μM in the cell; approximate value
Assay metric: Kd

query: Return Kd for the following substance: GPMGMAQNDSQEFAELWEKNLISIQPPGGGSCWDIINDEEYLPGSFDPNFFGNVLEEQPQPSTLPPTST* [D.rer p53 P2 full, expressed whole TAD region of D. rerio p53]
result: ~100 nM

###

molecular target: MDM2 SWIB domain, Lepisosteus oculatus; assay: Fluorescence polarization displacement assay; type: binding; conditions: replicate 3; calculated from IC50 with Kd for probe 78 nM; read-out: Ki
Assay metric: pKi
One number for each entry, as −log10 of the molar value.

query: Return pKi for the following sequence: GPMGMADPEPEGLPLSQESFQELWNMVIVLHRAVPPENAQWPDLQSMLYTNELVPNAIDSLYEELEPHVSMPPQPMVSNPDGLAPSSST [L.ocu p53 full, expressed full-length spotted gar p53TAD]
result: 7.13

###

target: D. rerio MDM2 (Danio rerio, UniProt O42354); construct: NusA-TEV-His6-PreScission site (N, cleaved yes); made in house; host or cells: Escherichia coli BL21 (DE3); assay: Isothermal titration calorimetry; assay type: binding; details: ITC, 25 °C; one of two replicates, the second printed for this construct in Fig. S5 (replicate number not assignable)
Sequence (O42354 with tags, fused parts or gaps): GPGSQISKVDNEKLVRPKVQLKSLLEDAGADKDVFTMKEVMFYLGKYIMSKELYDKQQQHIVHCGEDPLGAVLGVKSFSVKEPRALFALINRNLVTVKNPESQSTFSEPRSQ
Assay metric: Kd (nM)
Numbers only, in nM.

query: Return Kd for the following substance: GPMGMAQNDSQEFAELWEKNLISIQPPGGGSCWDIINDEEYLPGSFDPNFFGNVLEEQPQPSTLPPTST* [D.rer p53 P2 full, expressed whole TAD region of D. rerio p53]
result: 100

###

biological target: MDM2 SWIB domain, Lepisosteus oculatus; assay: Fluorescence polarization displacement assay; assay type: binding; conditions: equals the mean of the replicates; read-out: IC50 [nM], mean
Assay metric: IC50 (nM)
Answers are plain numbers, in nM.

query: Return IC50 for the following sequence: GPMGMADPEPEGLPLSQESFQELWNMVIVLHRAVPPENAQWPDLQSMLYTNELVPNAIDSLYEELEPHVSMPPQPMVSNPDGLAPSSST [L.ocu p53 full, expressed full-length spotted gar p53TAD]
result: 2090

###

target: D. rerio MDM2 (Danio rerio); construct: NusA-TEV-His6-PreScission site (N, cleaved yes); made in house; host or cells: Escherichia coli BL21 (DE3); test: Isothermal titration calorimetry; type: binding; conditions: ITC, 25 °C; one of two replicates, the first printed for this construct in Fig. S5 (replicate number not assignable)
Assay metric: Kd (nM)
One number for each entry, in nM.

query: Return Kd for the following substance: GPMGMAQNDSQEFAELWEKNLISIQPPGGGSCWDIINDEEYLPGSFDPNFFGNVLEEQPQPSTLPPTST* [D.rer p53 P2 full, expressed whole TAD region of D. rerio p53]
result: 100

###

target: MDM2 SWIB domain, Lepisosteus oculatus; assay: Fluorescence polarization displacement assay; assay type: binding; conditions: FP displacement of FITC-p53TADhuman^15–26 (15 nM) from MDM2 (1 μM); KD from IC50; 20 mM sodium phosphate pH 7.4, 150 mM NaCl, 1 mM TCEP
Assay metric: pKd
Numbers only, as −log10 of the molar value.

query: For MDM2 SWIB domain, Lepisosteus oculatus, give the measured pKd of the entry GPMGMADPEPEGLPLSQESFQELWNMVIVLHRAVPPENAQWPDLQSMLYTNELVPNAIDSLYEELEPHVSMPPQPMVSNPDGLAPSSST [L.ocu p53 full, expressed full-length spotted gar p53TAD]
result: 7.07

###

molecular target: MDM2H.sapiens SWIB domain (Homo sapiens); construct: NusA-TEV-His6-PreScission (N, cleaved yes); made in house; host or cells: Escherichia coli BL21 (DE3); test: Fluorescence polarization displacement assay; assay type: binding
Sequence (Q00987 with tags, fused parts or gaps): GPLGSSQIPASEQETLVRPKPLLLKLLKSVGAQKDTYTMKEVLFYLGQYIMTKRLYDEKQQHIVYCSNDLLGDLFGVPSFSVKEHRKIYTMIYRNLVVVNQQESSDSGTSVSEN
pKi: −log10 of the molar value. Where no end group is shown, it is not given here.
Entry flag: t if pKi reaches 6; f if it does not.

query: Identify whether the reported pKi of the following substance is 6 or greater: Ac-SQEFAELWEKNL [D.rer p53 P2 short]
result: f

query: Identify whether the reported pKi of the following substance is 6 or greater: Ac-SQESFQELWNMVI [L.ocu p53 short]
result: t

query: Identify whether the reported pKi of the following substance is 6 or greater: Ac-SQDTFQDLWENVA [T.rub p53 P1 short]
result: f

***
query: Identify whether the reported pKi of the following substance is 6 or greater: Ac-SQDSFKELWDQLP [M.zeb p53 P1 short]
result: t

query: Identify whether the reported pKi of the following substance is 6 or greater: Ac-SQESFQDLWNMVT [Acti p53 ML]
result: t

query: Identify whether the reported pKi of the following substance is 6 or greater: Ac-GQCSFQQLWESNM [O.kis p53 P1a short]
result: f

query: Identify whether the reported pKi of the following substance is 6 or greater: Ac-SQESFQELWKMMC [A.ang p53 P1 short]
result: t

###

target: MDM2D.rerio SWIB domain (Danio rerio); construct: NusA-TEV-His6-PreScission (N, cleaved yes); made in house; host or cells: Escherichia coli BL21 (DE3); test: Fluorescence polarization displacement assay; assay type: binding
Where no end group is shown, it is not given here.
Assay metric: Kd (µM)
Numbers only, in µM.

query: Return Kd for the following substance: Ac-SQEFAELWEKNL [D.rer p53 P2 short]
result: 3.6

###

target: MDM2 SWIB domain, Lepisosteus oculatus; experiment: Fluorescence polarization displacement assay; format: binding; details: replicate 3; MDM2 1000 nM, labeled probe 15 nM; read-out: IC50 [M] (IT)
Assay metric: IC50 (M)
Numbers only, in M.

query: Return IC50 for the following sequence: GPMGMADPEPEGLPLSQESFQELWNMVIVLHRAVPPENAQWPDLQSMLYTNELVPNAIDSLYEELEPHVSMPPQPMVSNPDGLAPSSST [L.ocu p53 full, expressed full-length spotted gar p53TAD]
result: 1.95e-06

###

target: MDM2 SWIB domain, Lepisosteus oculatus; assay: Fluorescence polarization displacement assay; format: binding; details: replicate 1; MDM2 1000 nM, labeled probe 15 nM; read-out: IC50 [M] (IT)
Assay metric: IC50 (M)
One number for each entry, in M.

query: Return IC50 for the following sequence: GPMGMADPEPEGLPLSQESFQELWNMVIVLHRAVPPENAQWPDLQSMLYTNELVPNAIDSLYEELEPHVSMPPQPMVSNPDGLAPSSST [L.ocu p53 full, expressed full-length spotted gar p53TAD]
result: 2.17e-06

###

molecular target: MDM2H.sapiens SWIB domain (Homo sapiens); construct: NusA-TEV-His6-PreScission (N, cleaved yes); made in house; host or cells: Escherichia coli BL21 (DE3); test: Fluorescence polarization displacement assay; format: binding
Where no end group is shown, it is not given here.
Assay metric: Kd (nM)
Answers are plain numbers, in nM.

query: For MDM2H.sapiens SWIB domain (Homo sapiens), give the measured Kd of the entry Ac-SQESFQELWNMVM [Tele p53 ML]
result: 39

Consider the additional substance presented here.
query: For MDM2H.sapiens SWIB domain (Homo sapiens), give the measured Kd of the entry Ac-SQESFQELWNMVA [Acti p53 AA]
result: 39

###

biological target: MDM2H.sapiens SWIB domain (Homo sapiens); construct: NusA-TEV-His6-PreScission (N, cleaved yes); made in house; host or cells: Escherichia coli BL21 (DE3); experiment: Fluorescence polarization displacement assay; assay type: binding
Where no end group is shown, it is not given here.
Assign labels as follows, please: MET for IC50 below 6 µM; NOT MET for IC50 equal to or exceeding 6 µM.

query: Consider the substance Ac-GQCSFQQLWESNM [O.kis p53 P1a short] . Is its IC50 strictly less than 6 µM?
result: NOT MET

query: Consider the substance Ac-SQGTFDEIWASNF [C.har p53 P1 short] . Is its IC50 strictly less than 6 µM?
result: NOT MET

query: Consider the substance Ac-SQDETFQALWNTVT [A.ang p53 P2 short] . Is its IC50 strictly less than 6 µM?
result: MET

query: Consider the substance Ac-SQESFQELWKMMC [A.ang p53 P1 short] . Is its IC50 strictly less than 6 µM?
result: MET

query: Consider the substance Ac-SQESFQELWNMVA [Acti p53 AA] . Is its IC50 strictly less than 6 µM?
result: MET

***
query: Consider the substance Ac-SQESFQELWNMVI [L.ocu p53 short] . Is its IC50 strictly less than 6 µM?
result: MET

query: Consider the substance Ac-SQDSFKELWDQLP [M.zeb p53 P1 short] . Is its IC50 strictly less than 6 µM?
result: MET

query: Consider the substance Ac-SQDTFQDLWENVA [T.rub p53 P1 short] . Is its IC50 strictly less than 6 µM?
result: NOT MET

query: Consider the substance Ac-SQESFQDLWNMVT [Acti p53 ML] . Is its IC50 strictly less than 6 µM?
result: MET

query: Consider the substance Ac-SQESFQELWNMVM [Tele p53 ML] . Is its IC50 strictly less than 6 µM?
result: MET

query: Consider the substance Ac-SQESFQELWKMIL [Tele p53 AA] . Is its IC50 strictly less than 6 µM?
result: MET

query: Consider the substance Ac-SQDSFRELWESVV [C.arg p53 P1 short] . Is its IC50 strictly less than 6 µM?
result: NOT MET

query: Consider the substance Ac-SQEFAELWEKNL [D.rer p53 P2 short] . Is its IC50 strictly less than 6 µM?
result: NOT MET
